Values were extracted from ChEMBL document CHEMBL3399947.

Target: GABA transporter 2 (Mus musculus, UniProt P31651)
Assay: Inhibition of mouse mGAT2 expressed in HEK293 cells assessed as inhibition of [3H]GABA uptake after 3 mins incubation by TopCount microplate scintillation counting analysis
Assay type: cell-based
Conditions: read-out: IC50
pIC50: −log10 of the molar value.

{"columns": ["compound", "qualifier symbol", "pIC50"],
 "data": [
  ["CCOC(=O)[C@H]1CCCC[C@H]1N(C)CCOC(c1ccc(C(F)(F)F)cc1)c1ccc(C(F)(F)F)cc1", "=", 3.49],
  ["CNCCON=C(c1ccccc1)c1ccccc1", "=", 3.37],
  ["CCN1CCNCC1C(=O)O (racemic)", "<", 3.00],
  ["Cc1ccsc1C(=CCCN1CCN(C(=N)N)CC(C(=O)O)C1)c1sccc1C (stereo not given)", "<", 3.00],
  ["CN(CCON=C(c1ccccc1)c1ccccc1)CCC(=O)O", "=", 2.12],
  ["COc1ccc(C(OCCN2CCC[C@H](C(=O)O)C2)(c2ccc(OC)cc2)c2ccc(OC)cc2)cc1", "=", 4.66],
  ["Cc1ccsc1C(=CCCN(C)[C@@H]1CCCC[C@@H]1C(=O)O)c1sccc1C", "=", 4.02],
  ["Cc1ccsc1C(=CCCN1CCN(CCO)CC(C(=O)O)C1)c1sccc1C (stereo not given)", "<", 3.00],
  ["Cc1ccsc1C(=CCCN(C)CCC(=O)O)c1sccc1C", "=", 3.03],
  ["Cc1ccsc1C(=CCCN(C)[C@H]1CCCC[C@H]1C(=O)O)c1sccc1C", "=", 4.67]
]}

---

Molecular target: Sodium- and chloride-dependent GABA transporter 1 (Mus musculus, UniProt P31648)
Assay: Inhibition of mouse mGAT1 expressed in HEK293 cells assessed as inhibition of [3H]GABA uptake after 3 mins incubation by TopCount microplate scintillation counting analysis
Format: cell-based
Conditions: read-out: IC50
pIC50: −log10 of the molar value.

{"columns": ["compound", "qualifier symbol", "pIC50"],
 "data": [
  ["CCCCN1CCN(CCC=C(c2sccc2C)c2sccc2C)CC(C(=O)O)C1 (stereo not given)", "=", 3.73],
  ["Cc1ccsc1C(=CCCN(C)[C@H]1CCCC[C@H]1CO)c1sccc1C", "=", 3.67],
  ["CN(CCON=C(c1ccccc1)c1ccccc1)[C@@H]1CCCC[C@@H]1C(=O)O", "<", 3.00],
  ["CN(CCOC(c1ccc(C(F)(F)F)cc1)c1ccc(C(F)(F)F)cc1)[C@@H]1CCCC[C@H]1C(=O)O (racemic)", "=", 3.37],
  ["Cc1ccsc1C(=CCCN(C)[C@@H]1CCCC[C@@H]1CO)c1sccc1C", "=", 3.62],
  ["Cc1ccsc1C(=CCCN(C)[C@@H]1CCCC[C@H]1C(=O)O)c1sccc1C", "=", 3.71],
  ["CN(CCCP(=O)(O)O)CCON=C(c1ccccc1)c1ccccc1", "<", 3.00],
  ["CCOC(=O)[C@H]1CCCC[C@H]1N(C)CCC=C1c2ccccc2CCc2ccccc21", "=", 2.93],
  ["CN(CCON=C(c1ccccc1)c1ccccc1)[C@H]1CCCC[C@H]1C(=O)O", "<", 3.00],
  ["CCN1CCN(CCON=C(c2ccccc2)c2ccccc2)CC(C(=O)O)C1 (stereo not given)", "<", 3.00]
]}

---

Molecular target: UniProt:P31648
Assay: Inhibition of mouse mGAT1 expressed in HEK293 cells assessed as inhibition of [3H]GABA uptake after 3 mins incubation by TopCount microplate scintillation counting analysis
Type: cell-based
Conditions: read-out: IC50
pIC50: −log10 of the molar value.
Listing of recorded pIC50 by entry.

{"columns": ["molecule", "qualifier symbol", "pIC50"],
 "data": [
  ["CN(CCC=C1c2ccccc2CCc2ccccc21)[C@H]1CCCC[C@@H]1C(=O)O", "=", 3.02],
  ["Cc1ccsc1C(=CCCN1CCN(CCON=C(c2ccccc2)c2ccccc2)CC(C(=O)O)C1)c1sccc1C (centres undefined)", "<", 3.00],
  ["Cc1ccsc1C(=CCCN(C)[C@@H]1CCCC[C@@H]1C(=O)O)c1sccc1C", "=", 3.04],
  ["O=C(O)C1CN(CCO)CCN(CCON=C(c2ccccc2)c2ccccc2)C1 (centres undefined)", "<", 3.00],
  ["CCOC(=O)[C@@H]1CCCC[C@@H]1N(C)CCC=C(c1sccc1C)c1sccc1C", "=", 3.10],
  ["CN(CCOC(c1ccc(C(F)(F)F)cc1)c1ccc(C(F)(F)F)cc1)[C@@H]1CCCC[C@H]1C(=O)O", "=", 3.38],
  ["CCN1CCN(CCC=C(c2sccc2C)c2sccc2C)CC(C(=O)O)C1 (centres undefined)", "=", 3.32],
  ["O=C(O)C1CN(CCON=C(c2ccccc2)c2ccccc2)CCN1 (racemic)", "=", 3.67],
  ["CN(CCOC(c1ccc(C(F)(F)F)cc1)c1ccc(C(F)(F)F)cc1)[C@H]1CCCC[C@H]1C(=O)O", "=", 3.20]
]}

---

Target: GABA transporter 2 (Mus musculus, UniProt P31651)
Assay: Inhibition of mouse mGAT2 expressed in HEK293 cells assessed as inhibition of [3H]GABA uptake after 3 mins incubation by TopCount microplate scintillation counting analysis
Assay type: cell-based
Conditions: read-out: IC50
In this section we review reported IC50 values for a set of compounds.

{"columns": ["compound", "measurement target", "qualifier symbol", "IC50, µM"],
 "data": [
  ["CNCCC=C1c2ccccc2CCc2ccccc21 [NORTRIPTYLINE]", "GABA transporter 2 (Mus musculus, UniProt P31651)", "=", 171],
  ["Cc1ccsc1C(=CCCN1CCN(CCON=C(c2ccccc2)c2ccccc2)CC(C(=O)O)C1)c1sccc1C (stereo not given)", "GABA transporter 2 (Mus musculus, UniProt P31651)", ">", 1000],
  ["CCOC(=O)[C@@H]1CCCC[C@@H]1N(C)CCC=C1c2ccccc2CCc2ccccc21", "GABA transporter 2 (Mus musculus, UniProt P31651)", "=", 375],
  ["CN(CCOC(c1ccc(C(F)(F)F)cc1)c1ccc(C(F)(F)F)cc1)[C@@H]1CCCC[C@H]1C(=O)O", "GABA transporter 2 (Mus musculus, UniProt P31651)", "=", 97.1],
  ["CN(CCON=C(c1ccccc1)c1ccccc1)[C@@H]1CCCC[C@@H]1CO", "GABA transporter 2 (Mus musculus, UniProt P31651)", "=", 76.6]
]}

---

Biological target: GABA transporter 2 (Mus musculus)
Sequence (P31651 whole entry): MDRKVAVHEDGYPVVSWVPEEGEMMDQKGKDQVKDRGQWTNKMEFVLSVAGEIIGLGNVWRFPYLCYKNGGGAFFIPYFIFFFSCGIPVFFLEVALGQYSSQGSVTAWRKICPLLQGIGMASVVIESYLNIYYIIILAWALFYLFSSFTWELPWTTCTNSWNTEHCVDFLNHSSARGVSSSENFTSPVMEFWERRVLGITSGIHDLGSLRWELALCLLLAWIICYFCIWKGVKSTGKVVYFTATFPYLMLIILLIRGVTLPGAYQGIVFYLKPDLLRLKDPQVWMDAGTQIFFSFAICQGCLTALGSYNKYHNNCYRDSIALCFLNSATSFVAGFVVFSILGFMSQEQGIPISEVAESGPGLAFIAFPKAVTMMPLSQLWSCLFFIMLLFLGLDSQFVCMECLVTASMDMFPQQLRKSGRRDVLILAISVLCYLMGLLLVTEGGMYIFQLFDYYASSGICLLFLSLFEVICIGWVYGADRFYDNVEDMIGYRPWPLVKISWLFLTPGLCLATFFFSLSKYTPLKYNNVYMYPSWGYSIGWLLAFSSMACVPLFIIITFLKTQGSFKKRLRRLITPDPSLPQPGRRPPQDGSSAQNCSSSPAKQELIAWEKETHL
Experiment: Inhibition of mouse mGAT2 expressed in HEK293 cells assessed as inhibition of [3H]GABA uptake after 3 mins incubation by TopCount microplate scintillation counting analysis
Type: cell-based
Conditions: read-out: IC50
pIC50: −log10 of the molar value.

{"columns": ["test smiles", "pIC50"],
 "data": [
  ["CNCCC=C(c1sccc1C)c1sccc1C", 3.75],
  ["Cc1ccsc1C(=CCCN(C)[C@@H]1CCCC[C@@H]1CO)c1sccc1C", 4.46],
  ["CCOC(=O)[C@H]1CCCC[C@H]1N(C)CCON=C(c1ccccc1)c1ccccc1", 3.94],
  ["Cc1ccsc1C(=CCCN(C)[C@H]1CCCC[C@@H]1C(=O)O)c1sccc1C", 4.21],
  ["COc1ccccc1C1(O)CCN(CCCn2c3ccccc3c3ccccc32)CC1", 5.85],
  ["CN(CCC=C1c2ccccc2CCc2ccccc21)[C@H]1CCCC[C@H]1CO", 4.55]
]}
